B1: ZER1 (parent)
chain: KEMARKVIEHCSNFKEENMDTSR

variants of: B1; assay: protein stability index of a GFP-peptide fusion (GPS, HEK-293T) (PSI 1-6); higher = more stable; conditions: c terminus: native;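 also: lentivirally expressed fusions sorted by FACS into six bins by GFP to DsRed ratio, PSI derived from sequencing read proportions per bin multiplied by bin number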
The threshold is inclusive: protein stability index of exactly 4 counts as TRUE; values below receive FALSE.

Please review the following examples before continuing.
- M19S: FALSE
- H10V: FALSE
- A4R: TRUE
- E2T: FALSE
- K1P: FALSE
- R23M: TRUE

[ask] Identify whether the reported protein stability index of the following variant is 4 or greater: R5H
[reply] FALSE

[ask] For this variant, is measured protein stability index 4 or higher? R5T
[reply] FALSE

[ask] API: above_or_equal(metric=protein stability index, cutoff=4) for item K6L
[reply] FALSE
